target: UniProtKB Q9QNF7
Sequence (Q9QNF7 whole entry): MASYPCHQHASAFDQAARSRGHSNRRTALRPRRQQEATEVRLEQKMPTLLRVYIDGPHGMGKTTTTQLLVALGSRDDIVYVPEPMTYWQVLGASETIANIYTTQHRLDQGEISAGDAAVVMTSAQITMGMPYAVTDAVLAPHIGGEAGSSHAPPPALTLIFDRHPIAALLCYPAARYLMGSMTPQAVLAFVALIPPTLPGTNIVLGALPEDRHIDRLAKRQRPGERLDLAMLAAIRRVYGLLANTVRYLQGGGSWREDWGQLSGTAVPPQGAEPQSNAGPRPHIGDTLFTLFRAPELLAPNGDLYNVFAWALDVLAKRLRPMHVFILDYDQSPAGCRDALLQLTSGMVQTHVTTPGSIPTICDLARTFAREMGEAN
IC50 less than 50 µM is Condition met; IC50 greater than or equal to 50 µM is Condition not met.

Examples from the recorded data:
STRUCTURE	CLASS_NAME
Cc1cn([C@H]2C[C@H](n3cc(-c4ccc(Cl)cc4)nn3)[C@@H](CO)O2)c(=O)[nH]c1=O	Condition met
CCCCc1cn([C@H]2C[C@H](n3cc(C)c(=O)[nH]c3=O)O[C@@H]2CO)nn1	Condition not met
Cc1cn([C@H]2C[C@H](n3cc(-c4ccccn4)nn3)[C@@H](CO)O2)c(=O)[nH]c1=O	Condition met
Cc1cn([C@H]2C[C@H](n3cc(Cc4ccccc4)nn3)[C@@H](CO)O2)c(=O)[nH]c1=O	Condition not met
Cc1cn([C@H]2C[C@H](n3cc(CC4CCCC4)nn3)[C@@H](CO)O2)c(=O)[nH]c1=O	Condition met

Task item: Consider the compound Cc1cn([C@H]2C[C@H](n3cc(-c4ccc(Cl)c(Cl)c4)nn3)[C@@H](CO)O2)c(=O)[nH]c1=O . Is its IC50 strictly less than 50 µM?
Reply: Condition met

Task item: Just wondering, is IC50 of O=c1[nH]c(=O)n([C@H]2C[C@H](n3cc(-c4ccccc4)nn3)[C@@H](CO)O2)cc1/C=C/Br below 50 µM?
Reply: Condition met

Task item: Find out if reported IC50 for Cc1cn([C@H]2C[C@H](n3ccnn3)[C@@H](CO)O2)c(=O)[nH]c1=O is less than 50 µM
Reply: Condition not met

Task item: Dear reviewer, please state whether Cc1cn([C@H]2C[C@H](n3cc(-c4ccccc4)nn3)[C@@H](CO)O2)c(=O)[nH]c1=O has IC50 strictly beneath 50 µM.
Reply: Condition met

Task item: Determine whether this compound shows IC50 lower than 50 µM (ties excluded): Cc1cn([C@H]2C[C@H](n3nncc3-c3ccccc3)[C@@H](CO)O2)c(=O)[nH]c1=O
Reply: Condition not met

Task item: Determine whether this compound shows IC50 lower than 50 µM (ties excluded): Cc1cn([C@H]2C[C@H](n3nncc3-c3ccc(Cl)cc3)[C@@H](CO)O2)c(=O)[nH]c1=O
Reply: Condition not met

Task item: Does the reported IC50 of Cc1cn([C@H]2C[C@H](NC(=S)Nc3ccc(Cl)c(C(F)(F)F)c3)[C@@H](COC(c3ccccc3)(c3ccccc3)c3ccccc3)O2)c(=O)[nH]c1=O stay below 50 µM?
Reply: Condition not met

Task item: Lab log: compare recorded IC50 with 50 µM; is it strictly lower for O=c1[nH]c(=O)n([C@H]2C[C@H](n3cc(-c4ccc(Cl)cc4)nn3)[C@@H](CO)O2)cc1/C=C/Br ?
Reply: Condition met
